- Study system: T1, His-human LIGHT (human)
- T1 chain: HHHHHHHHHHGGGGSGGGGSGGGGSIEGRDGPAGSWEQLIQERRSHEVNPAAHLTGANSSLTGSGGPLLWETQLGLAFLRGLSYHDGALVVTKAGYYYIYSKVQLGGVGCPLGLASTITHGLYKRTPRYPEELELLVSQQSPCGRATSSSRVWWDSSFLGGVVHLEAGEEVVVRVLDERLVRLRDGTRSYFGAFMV
- Method: cell-based or functional assay
Readout: IC50, LIGHT induced MMP-9 production in BEAS-2B bronchial epithelial cells (µg/mL)
Entry rule: numbers only, all in µg/mL.

Consider the binder LT-m37 (antibody, human IgG4, V domains shown) VH: QVQLKQSGAELVRPGTSVKVSCKASGYSFTGYFINWVKQSHGKSLEWIGRIYPYNVNTFYNQNFKGRATLTADKSSSTAHMELLSLTSEDSAVYYCGRGTHYYGSSGAMDYWGQGTSVTVSS VL: DILLTQSHKFMSTSVGDRVSITCKASQNVGTAVAWYQQKPGQSPKLLIYSASNRYTGVPDRFTGSGSGTDFTLTISNMQSEDLADYFCQQYSSYPYTFGGGTKLEIK and give its measured IC50, LIGHT induced MMP-9 production in BEAS-2B bronchial epithelial cells.
0.359
